- SYSTEM TESTED: G-protein coupled receptor 55 (Homo sapiens)
- Sequence (Q9Y2T6 whole entry): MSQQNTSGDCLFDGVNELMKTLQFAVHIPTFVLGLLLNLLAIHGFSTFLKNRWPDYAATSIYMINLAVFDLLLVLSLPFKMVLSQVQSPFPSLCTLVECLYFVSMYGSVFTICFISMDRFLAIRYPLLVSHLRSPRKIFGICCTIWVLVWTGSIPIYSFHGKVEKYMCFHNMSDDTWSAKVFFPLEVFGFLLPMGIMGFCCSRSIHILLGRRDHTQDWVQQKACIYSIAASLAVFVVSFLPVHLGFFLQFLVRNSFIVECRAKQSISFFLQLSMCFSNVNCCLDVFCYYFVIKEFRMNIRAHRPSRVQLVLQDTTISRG
- TEST NAME: Antagonist activity at recombinant human GPR55 expressed in CHO cells assessed as inhibition of lysophosphatidylinositol-induced beta-arrestin recruitment preincubated for 60 mins followed by lysophosphatidylinositol addition for 90 mins measured for 1 sec by luminescence assay
- Type: functional, cell-based
VALUE KIND: Imax (%)
Number only, in %; omit the unit.

STRUCTURE SMILES STRING: Cc1cccc(C)c1OCCCCCCOc1cccc(/C=C2\N=C3SCCCN3C2=O)c1
ENDPOINT UNIT: %
MEASUREMENT: 32
//
STRUCTURE SMILES STRING: O=C1NC(SCc2ccc(Br)cc2)=N/C1=C\c1cccc(OCc2ccc(Cl)cc2)c1
ENDPOINT UNIT: %
MEASUREMENT: 36

Using the record for Cc1ccc(CSC2=N/C(=C\c3cccc(OCc4ccc(Cl)cc4)c3)C(=O)N2)cc1 , state its measured Imax.
48

---

- SYSTEM TESTED: Cannabinoid receptor 2 (Homo sapiens, UniProt P34972)
- Sequence (P34972 whole entry): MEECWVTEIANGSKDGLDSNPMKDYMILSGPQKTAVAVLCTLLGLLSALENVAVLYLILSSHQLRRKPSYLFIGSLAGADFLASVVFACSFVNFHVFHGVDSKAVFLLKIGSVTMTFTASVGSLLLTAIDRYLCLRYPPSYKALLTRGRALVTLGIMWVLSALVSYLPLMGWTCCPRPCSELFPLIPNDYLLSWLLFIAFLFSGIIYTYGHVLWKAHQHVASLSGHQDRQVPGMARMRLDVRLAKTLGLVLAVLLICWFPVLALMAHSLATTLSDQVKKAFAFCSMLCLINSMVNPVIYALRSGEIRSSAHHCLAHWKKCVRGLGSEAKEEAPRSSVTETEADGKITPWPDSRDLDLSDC
- TEST NAME: Displacement of [3H]CP55940 from recombinant human CB2 receptor expressed in CHO cell membranes after 2 hrs by liquid scintillation counting method
- Design: concentration or dose not given beside the values
- MEASUREMENT PARAMETERS: concentration not given here
VALUE KIND: inhibition (%)
Your answer should be a plain number; it is taken to be in %.

Check out these entries, answers already filled in.
STRUCTURE SMILES STRING: O=C1/C(=C/c2cccc(OCCOc3ccc(Cl)cc3)c2)N=C2SCCCN12
VALUE KIND: inhibition
ENDPOINT UNIT: %
MEASUREMENT: -9
--
STRUCTURE SMILES STRING: O=C1/C(=C/c2cccc(OCc3ccc(Cl)cc3)c2)N=C2SCCN12
VALUE KIND: inhibition
ENDPOINT UNIT: %
MEASUREMENT: 28
--
STRUCTURE SMILES STRING: O=C1NC(=S)N/C1=C\c1cccc(OCc2ccc(Cl)cc2)c1
VALUE KIND: inhibition
ENDPOINT UNIT: %
MEASUREMENT: 19

Proceed to the following item.
Answer with the recorded inhibition for the compound listed here: O=C1/C(=C/c2cccc(OCCCCCCOc3cccc(Cl)c3)c2)N=C2SCCCN12
46

---

- SYSTEM TESTED: Cannabinoid receptor 1 (Homo sapiens, UniProt P21554)
- Sequence (P21554 whole entry): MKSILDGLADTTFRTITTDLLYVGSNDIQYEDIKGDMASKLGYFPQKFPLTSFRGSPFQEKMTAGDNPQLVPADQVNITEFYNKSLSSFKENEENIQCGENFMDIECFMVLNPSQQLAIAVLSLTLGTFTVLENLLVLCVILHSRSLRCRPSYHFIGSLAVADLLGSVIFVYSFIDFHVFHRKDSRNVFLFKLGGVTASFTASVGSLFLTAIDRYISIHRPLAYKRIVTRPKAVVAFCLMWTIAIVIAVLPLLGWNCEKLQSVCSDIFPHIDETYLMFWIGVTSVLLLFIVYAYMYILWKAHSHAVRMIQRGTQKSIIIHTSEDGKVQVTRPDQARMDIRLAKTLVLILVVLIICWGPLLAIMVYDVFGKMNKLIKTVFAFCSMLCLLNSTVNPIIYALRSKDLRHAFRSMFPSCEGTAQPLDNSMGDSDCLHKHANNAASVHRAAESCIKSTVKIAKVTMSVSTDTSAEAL
- TEST NAME: Displacement of [3H]CP55940 from recombinant human CB1 receptor expressed in CHO cell membranes after 2 hrs by liquid scintillation counting method
# Ki listing for each entry below

# annotated cases, reported Ki shown
STRUCTURE SMILES STRING: Cc1ccc(CSC2=N/C(=C\c3cccc(OCc4ccc(Cl)cc4)c3)C(=O)N2C)cc1
SYSTEM TESTED: Cannabinoid receptor 1 (Homo sapiens, UniProt P21554)
Ki: > 10 µM

STRUCTURE SMILES STRING: O=C1NC(SCc2ccc(Br)cc2)=N/C1=C\c1cccc(OCc2ccc(Cl)cc2)c1
SYSTEM TESTED: Cannabinoid receptor 1 (Homo sapiens, UniProt P21554)
Ki: > 10 µM

STRUCTURE SMILES STRING: O=C1N=C2SCCN2/C1=C\c1cccc(OCc2ccc(Cl)cc2)c1
SYSTEM TESTED: Cannabinoid receptor 1 (Homo sapiens, UniProt P21554)
Ki: 1.67 µM

Please indicate Ki recorded for Cc1ccc(COc2cccc(/C=C3\N=C4SCCCN4C3=O)c2)cc1
> 10 µM

---

- SYSTEM TESTED: N-arachidonyl glycine receptor (Homo sapiens)
- TEST NAME: Antagonist activity at recombinant human GPR18 expressed in CHO cells assessed as inhibition of delta9-THC-induced beta-arrestin recruitment preincubated for 60 mins followed by delta9-THC addition for 90 mins measured for 1 sec by luminescence assay
- Assay type: functional, cell-based
// boundary case: Imax equal to 40% maps to f; strictly smaller maps to t

STRUCTURE SMILES STRING: O=C1/C(=C/c2cccc(OCCCc3ccccc3)c2)N=C2SCCCN12
LABEL CLASS: f
--
STRUCTURE SMILES STRING: O=C1/C(=C/c2cccc(OCc3ccc(Br)cc3)c2)N=C2SCCCN12
LABEL CLASS: f
--
STRUCTURE SMILES STRING: O=C1/C(=C/c2cccc(OCCCCCOc3ccc(Cl)cc3)c2)N=C2SCCCN12
LABEL CLASS: f

Criterion: Imax strictly below 40%. Is it met by CN1C(=N)NC(=O)/C1=C/c1cccc(OCc2ccc(Cl)cc2)c1 ?
t

---

- SYSTEM TESTED: UniProt:Q9Y2T6
- TEST NAME: Antagonist activity at recombinant human GPR55 expressed in CHO cells assessed as inhibition of lysophosphatidylinositol-induced beta-arrestin recruitment preincubated for 60 mins followed by lysophosphatidylinositol addition for 90 mins measured for 1 sec by luminescence assay
VALUE KIND: IC50 (µM)
Answer in µM, number only, no unit symbol.

Some solved entries appear below for comparison.
STRUCTURE SMILES STRING: O=C1/C(=C/c2cccc(OCc3ccc(Br)cc3)c2)N=C2SCCCN12
IC50 / µM: 45.8
--
STRUCTURE SMILES STRING: Cc1ccc(OCCCCCCOc2cccc(/C=C3\N=C4SCCCN4C3=O)c2)cc1
IC50 / µM: 2.91
--
STRUCTURE SMILES STRING: O=C1NC(=S)N/C1=C\c1cccc(OCc2ccc(Cl)cc2)c1
IC50 / µM: 32.4
--
STRUCTURE SMILES STRING: O=C1/C(=C/c2cccc(OCCc3ccccc3)c2)N=C2SCCCN12
IC50 / µM: 29.3

Lab note: next compound to report on.
Find the measured IC50 of O=C1/C(=C/c2cccc(OCCCCCOc3ccc(Cl)cc3)c2)N=C2SCCCN12 with UniProt:Q9Y2T6 as test system.
3.77
